target: Nuclear receptor ROR-gamma (Homo sapiens, UniProt P51449)
Sequence (P51449 whole entry): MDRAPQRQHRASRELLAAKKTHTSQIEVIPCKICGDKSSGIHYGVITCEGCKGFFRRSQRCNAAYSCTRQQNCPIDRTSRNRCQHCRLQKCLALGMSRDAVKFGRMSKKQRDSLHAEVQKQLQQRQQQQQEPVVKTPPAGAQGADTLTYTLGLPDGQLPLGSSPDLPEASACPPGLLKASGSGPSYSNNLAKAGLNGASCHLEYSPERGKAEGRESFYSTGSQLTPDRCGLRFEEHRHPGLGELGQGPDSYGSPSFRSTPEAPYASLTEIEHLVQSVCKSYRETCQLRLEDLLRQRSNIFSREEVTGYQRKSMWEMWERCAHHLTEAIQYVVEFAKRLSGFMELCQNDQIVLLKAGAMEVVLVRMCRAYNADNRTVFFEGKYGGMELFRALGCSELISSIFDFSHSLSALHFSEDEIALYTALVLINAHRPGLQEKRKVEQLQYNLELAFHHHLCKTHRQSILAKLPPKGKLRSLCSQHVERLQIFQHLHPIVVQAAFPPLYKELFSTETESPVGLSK
recorded.endpoint: pIC50
The value called pIC50 is obtained by taking minus log10 of the concentration in mol/L.

Measured pIC50 of CCc1ccc(N(CC(C)C)S(=O)(=O)c2ccc(OCC3CCOCC3)c(CO)c2)cc1 : 8.49

###

method.notes: physchem
condition.info: buffer
Description: Thermodynamic solubility in water by equilibrium shake-flask method
Examples of molecules with documented solubility thermodynamic follow.
Respond numerically; units are µg/mL and should not be typed.

C[C@H](CO)Nc1nc(Nc2ccc(S(N)(=O)=O)cc2)ncc1Br.Cl
8

Measured solubility thermodynamic of C[C@@H](O)[C@@H](C)Oc1nc(Nc2ccc([S@](=N)(=O)C3CC3)cc2)ncc1C(F)(F)F : 182

###

target: cGMP-specific 3',5'-cyclic phosphodiesterase (Homo sapiens, UniProt O76074)
condition.info: platelet
Description: Inhibition of human platelets derived PDE5 using [3H]-cGMP as substrate incubated for 60 min by scintillation proximity assay
recorded.endpoint: IC50 (nM)
Respond numerically; units are nM and should not be typed.

Measured IC50 of CCCc1nc(C)c2c(=O)[nH]c(-c3cc(S(=O)(=O)N4CCS(=N)(=O)CC4)ccc3OCC)nn12 : 0.025

###

target: Cyclin-dependent kinase 1/cyclin B1 (Homo sapiens, UniProt P06493)
Sequence (P06493 whole entry): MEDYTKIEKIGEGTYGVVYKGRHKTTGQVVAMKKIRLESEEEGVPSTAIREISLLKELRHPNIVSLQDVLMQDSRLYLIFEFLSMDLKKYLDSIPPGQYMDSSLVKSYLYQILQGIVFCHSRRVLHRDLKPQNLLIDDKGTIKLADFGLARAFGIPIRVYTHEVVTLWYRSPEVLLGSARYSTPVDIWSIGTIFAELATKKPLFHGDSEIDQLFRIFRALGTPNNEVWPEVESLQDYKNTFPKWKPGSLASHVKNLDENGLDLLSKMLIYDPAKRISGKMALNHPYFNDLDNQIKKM
Sequence (P14635 whole entry, further chain): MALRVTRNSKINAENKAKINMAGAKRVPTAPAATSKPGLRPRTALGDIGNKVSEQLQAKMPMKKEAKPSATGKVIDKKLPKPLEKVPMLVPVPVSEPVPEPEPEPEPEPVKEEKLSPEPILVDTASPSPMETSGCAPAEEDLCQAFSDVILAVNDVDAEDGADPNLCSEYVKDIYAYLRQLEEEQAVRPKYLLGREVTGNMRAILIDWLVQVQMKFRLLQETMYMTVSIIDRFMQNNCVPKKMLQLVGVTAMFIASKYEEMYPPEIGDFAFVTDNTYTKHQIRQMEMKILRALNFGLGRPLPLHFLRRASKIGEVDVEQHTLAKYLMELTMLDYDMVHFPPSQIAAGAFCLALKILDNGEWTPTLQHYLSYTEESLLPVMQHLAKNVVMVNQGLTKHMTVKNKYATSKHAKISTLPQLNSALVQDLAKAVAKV
recorded.endpoint: pIC50
The value called pIC50 is obtained by taking minus log10 of the concentration in mol/L.

Short answer on Cyclin-dependent kinase 1/cyclin B1 (Homo sapiens, UniProt P06493) for CCS(=N)(=O)c1ccc(Nc2ncc(Br)c(O[C@H](C)[C@@H](C)O)n2)cc1 (stereo partly specified) , pIC50: 8.70

###

method.notes: in vitro
condition.info: human, Caco-2
Description: Efflux ratio of apparent permeability across basolateral to apical side over apical to basolateral side in human Caco2 cells
recorded.endpoint: efflux ratio
Simply state the number, no unit and no words.

Measured efflux ratio of CCCc1nc(C)c2c(=O)[nH]c(-c3cc(S(=O)(=O)N4CCS(=N)(=O)CC4)ccc3OCC)nn12 : 288

###

Target or system Vascular endothelial growth factor receptor 2 (Homo sapiens); recorded quantity IC50.
Include the unit after the number when you answer.

Example entries and their recorded answers appear below.
C[C@@H](O)[C@@H](C)Oc1nc(Nc2ccc([S@](=N)(=O)C3CC3)cc2)ncc1C(F)(F)F
163 nM
C[C@H](CO)Nc1nc(Nc2ccc(S(N)(=O)=O)cc2)ncc1Br.Cl
34 nM

As a next step, examine the compound that follows.
Short answer on Vascular endothelial growth factor receptor 2 (Homo sapiens) for CCS(=N)(=O)c1ccc(Nc2ncc(Br)c(O[C@H](C)[C@@H](C)O)n2)cc1 (stereo partly drawn) , IC50: 32 nM

###

method.notes: in vitro
condition.info: human, Caco-2
Description: Apparent permeability across apical to basolateral side in human Caco2 cells at 2 uM measured after 2 hrs by LC-MS/MS analysis
recorded.endpoint: Papp A→B at 2 h, 2 µM (×10⁻⁶ cm/s)
Respond numerically; units are ×10⁻⁶ cm/s and should not be typed.

CCCc1nc(C)c2c(=O)[nH]c(-c3cc(S(=O)(=O)N4CCS(=N)(=O)CC4)ccc3OCC)nn12
0.71

Measured Papp A→B at 2 h, 2 µM of CCCc1nc(C)c2c(=O)[nH]c(-c3cc(S(=O)(=O)N4CCN(CC)CC4)ccc3OCC)nn12 : 206

###

method.notes: physchem
condition.info: in vivo, pH 7.4
Examples of molecules with documented solubility thermodynamic at 24 h follow.
Include the unit after the number when you answer.

COc1cc(F)ccc1-c1ncnc(Nc2cccc(CS(N)(=O)=O)c2)n1
11 µg/mL

As a next step, examine the molecule that follows.
Measured solubility thermodynamic at 24 h of COc1cc(F)ccc1-c1ncnc(Nc2cccc(C[S@](C)(=N)=O)c2)n1 [ATUVECICLIB] : 479 µg/mL

###

target: Beta-secretase 1 (Homo sapiens)
Sequence (P56817 whole entry): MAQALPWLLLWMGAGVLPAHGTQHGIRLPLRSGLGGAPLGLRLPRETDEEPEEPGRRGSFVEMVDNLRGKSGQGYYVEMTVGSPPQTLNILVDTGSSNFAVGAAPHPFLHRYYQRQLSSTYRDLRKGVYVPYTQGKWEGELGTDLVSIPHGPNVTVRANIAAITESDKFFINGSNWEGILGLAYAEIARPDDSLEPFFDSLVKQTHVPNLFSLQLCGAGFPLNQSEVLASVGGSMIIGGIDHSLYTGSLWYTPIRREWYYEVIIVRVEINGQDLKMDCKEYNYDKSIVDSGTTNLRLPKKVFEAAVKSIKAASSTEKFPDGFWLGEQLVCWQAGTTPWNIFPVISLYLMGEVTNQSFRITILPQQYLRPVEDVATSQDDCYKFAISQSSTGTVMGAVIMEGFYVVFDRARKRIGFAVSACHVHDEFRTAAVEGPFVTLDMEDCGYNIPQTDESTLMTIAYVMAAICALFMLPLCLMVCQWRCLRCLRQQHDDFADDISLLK
Examples of compounds with documented pIC50 follow.
The value called pIC50 is obtained by taking minus log10 of the concentration in mol/L.

N#Cc1ccc(C(=O)Nc2ccc(F)c([C@]3(CF)CS4(=O)=NCCCCN4C(N)=N3)c2)nc1 (single isomer, unassigned)
7.55

Measured pIC50 of CN=S1(=O)C[C@@](C)(c2cc(NC(=O)c3ncc(C#N)cc3C)ccc2F)N=C(N)N1CC(F)(F)F (single isomer, unassigned) : 9.23

Measured pIC50 of Cc1cc(C#N)cnc1C(=O)Nc1ccc(F)c([C@]2(C)CS(=O)(=NCC(F)(F)F)N(C)C(N)=N2)c1 (single isomer, unassigned) : 9.00

Measured pIC50 of C[C@@]1(c2cc(NC(=O)c3cnc(C#N)cn3)ccc2F)CS2(=O)=NCC(F)(F)CN2C(N)=N1 (single isomer, unassigned) : 8.70

###

method.notes: physchem
condition.info: in vivo, pH 6.5
recorded.endpoint: solubility thermodynamic at 24 h (µg/mL)
Respond numerically; units are µg/mL and should not be typed.

Measured solubility thermodynamic at 24 h of COc1cc(F)ccc1-c1nc(Nc2cc(F)cc(CS(C)(=N)=N)c2)ncc1F : 91
